Tested on: CD4
Type: cell-based, human
valueType: CD4 surface expression

Worked examples, 4 sequences total:
>  <macromoleculeSequence>
VDGIPVGWDADARAPA (Hepatitis GB virus C) [S158G]

>  <CD4 surface expression>
do not

$$$$
>  <macromoleculeSequence>
VDGIPVAWDADARAPA (Hepatitis GB virus C) [S158A]

>  <CD4 surface expression>
do not

$$$$
>  <macromoleculeSequence>
DVIRAGPAWDSVAPAD [152-167scr, negative control, reference compound]

>  <CD4 surface expression>
do not

$$$$
>  <macromoleculeSequence>
VDGIPVEWDADARAPA [S158E]

>  <CD4 surface expression>
down-regulate CD4

$$$$

Proceed to the following item.
Q. Any idea what CD4 surface expression was measured for VDGIPVSWDADARAPA (Hepatitis GB virus C) [152-167] ?
A. down-regulate CD4
